# system: mouse VISTA (mVISTA) (Mus musculus, UniProt Q9D659)
# Construct: expressed in transfected cells; host or cells: Human embryonic kidney 293T cells
# Sequence (Q9D659 33-308): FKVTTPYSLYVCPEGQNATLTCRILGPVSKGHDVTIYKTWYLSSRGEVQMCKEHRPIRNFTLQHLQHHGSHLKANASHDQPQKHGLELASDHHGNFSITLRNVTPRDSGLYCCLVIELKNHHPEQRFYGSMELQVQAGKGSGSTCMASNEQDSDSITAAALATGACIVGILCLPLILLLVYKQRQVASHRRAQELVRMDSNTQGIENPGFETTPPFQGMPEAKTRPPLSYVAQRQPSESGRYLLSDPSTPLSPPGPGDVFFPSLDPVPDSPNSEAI
# test-summary: Cell-Based Binding High-Content Assay For mVISTA (HC CBA mVISTA)
# reported-conditions: cell-based binding high-content assay; read-out: HC CBA miPrISTA IC50
pIC50: −log10 of the molar value.

molecule: CCCCCCN1CC(=O)N[C@@H](Cc2ccc(O)cc2)C(=O)N[C@@H](CCCC)C(=O)N[C@@H](CC(N)=O)C(=O)N[C@@H](CCCNC(=N)N)C(=O)N(C)[C@@H](CC(C)C)C(=O)N[C@@H](CCCCC)C(=O)N2CCC[C@H]2C(=O)N[C@@H](C(C)C)C(=O)N[C@@H](CO)C(=O)N[C@H](C(=O)NCCOCCOCC(=O)N[C@@H](CC(=O)O)C(=O)NCCOCCOCC(=O)NCCCCCCCCCCC(=O)O)CSCC(=O)N[C@@H](Cc2ccccc2)C(=O)N[C@@H](Cc2c[nH]c3ccccc23)C(=O)N[C@@H](CC(=O)O)C1=O (stereo in doubt) [compound 2314]
system: mouse VISTA (mVISTA) (Mus musculus, UniProt Q9D659)
pIC50: 7.46
